What koff was measured for each of the following?
- ASSAYED_SYSTEM: T1, Cynomolgus monkey CD98 ECD with C-terminal His-tag (cynomolgus monkey, UniProt P08195 105-529 (human entry))
- T1 construct: also called cyCD98 ECD; recombinant cynomolgus monkey CD98 extracellular domain
- T1 chain: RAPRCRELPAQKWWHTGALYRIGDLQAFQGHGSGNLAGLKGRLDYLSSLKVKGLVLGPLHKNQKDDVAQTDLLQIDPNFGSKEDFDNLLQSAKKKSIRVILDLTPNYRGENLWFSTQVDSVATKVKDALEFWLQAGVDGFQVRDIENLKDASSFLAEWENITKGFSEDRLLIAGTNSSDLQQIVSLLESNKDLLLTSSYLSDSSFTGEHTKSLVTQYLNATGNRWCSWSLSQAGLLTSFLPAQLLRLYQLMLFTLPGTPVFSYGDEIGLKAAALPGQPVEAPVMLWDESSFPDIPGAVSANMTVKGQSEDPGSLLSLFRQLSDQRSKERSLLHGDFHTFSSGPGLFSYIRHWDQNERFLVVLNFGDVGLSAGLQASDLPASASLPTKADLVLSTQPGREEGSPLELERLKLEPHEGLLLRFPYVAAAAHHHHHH
- ASSAY: SPR Biacore, anti-Fc capture of mAb, CD98 ECD analyte
One number for each entry, in s⁻¹.

Known results for binders:
BINDER	koff, s⁻¹
Recombinant anti-CD98 chimeric antibody chAb7 (antibody, human IgG1, V domains shown) VH: QVQLKESGPGLVQPSQTLSLTCTVSGFSLSTYGVIWVRQPPGKGLEWMGVIWANGNTNYNSTLKSRLSISRDTSKSQVYLKMNSLQTEDTATYYCARHYYDGTYYYGYFDYWGQGVMVTVSS VL: DIVMTQTPSSQAVSAGEKVTMNCKSSQSLLYSENKKNYLAWYQQKPGQSPKLLIYWASTRESGVPDRFIGSGSGTDFTLTISSVQAEDLAVYYCQQYYYFPYTFGPGTKLELK	0.00022
Recombinant anti-CD98 chimeric antibody chAb1 (antibody, human IgG1, V domains shown) VH: EVKLVESGGGLVQPGGSLRLSCATSGFTFTDYYMSWVRQPPGKALEWLGFIRNPANVYTTEYSASVKGRFTISRDNSQSILYLQMNTLRAEDSATYYCARASYGNSEGWFAYWGQGTLVTVSA VL: DIVMSQSPSSLAVSVGEKVTMSCKSSQNLLYNNNQKNYLAWYQQKPGQSPKLLIYWASTRESGVPDRFTGSGSGTDFTLTISSVKAEDLAVYYCQQYYSYPRTFGGGTKLEIK	2.2e-05

Now take the following binder into account.
Q: koff lookup needed for Recombinant anti-CD98 chimeric antibody chAb3 (antibody, human IgG1, V domains shown) VH: EVKLVESGGGLVQPGNSLRLSCATSGFTFIDYYMSWVRQSPGKALEWLGFIRNKANGYTTEYSASVKGRFTISRDNSQSILYLQMDTLRAEDSATYYCTRDRPAWFVYWGQGTLVTVSA VL: DIVMSQSPSSLAVSVGEKVTMSCKSSQSLLYSSNQKNYLAWYQQKPGQSPKLLIYWASTRESGVPDRFTGSGSGTDFTLTFSSVRAEDLAVYYCQQYYSYPYTFGGGTKLEIK , thanks.
A: 0.0016
